All values here come from ChEMBL document CHEMBL1135862.

Reported Inhibition values for a set of compounds
test system: Escherichia coli; experiment: Antimicrobial activity against the Escherichia coli after 96 hr incubation; assay type: functional; set-up: concentration or dose not given beside the values
Give the number; % is assumed, so skip it.

Req: Form field - read-out: Inhibition; system: Escherichia coli; submitted item: Cc1cc(C#CCOC2CCCCO2)cc(=O)o1 (stereo not given)
Resp: 19.3

Req: What measured Inhibition is associated with `Cc1cc(CCc2ccccc2)cc(=O)o1` on Escherichia coli?
Resp: 22.7

Req: Tell me reported Inhibition for `Cc1cc(/C=C/c2ccccc2)cc(=O)o1` , tested with Escherichia coli.
Resp: 19.3

Req: Request: Inhibition, test system Escherichia coli, entry `Cc1cc(C#Cc2ccccc2)cc(=O)o1`
Resp: 22.7
